Would you mind telling me the reported protein stability index of each entry?
B1: DUSP5 (parent)
chain: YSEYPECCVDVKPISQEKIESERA

Variants of: B1
Assay: protein stability index of a GFP-peptide fusion (GPS, HEK-293T) (PSI 1-6); higher = more stable;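 note: lentivirally expressed fusions sorted by FACS into six bins by GFP to DsRed ratio, PSI derived from sequencing read proportions per bin multiplied by bin number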
Recorded Conditions: c terminus: a fixed tail appended

For reference, reported protein stability index for `D10E` stands at 4.66

For reference, reported protein stability index for `K12C` stands at 3.96

For reference, reported protein stability index for `Y1Q` stands at 5.33

For reference, reported protein stability index for `S21T` stands at 4.55

For reference, reported protein stability index for `E20H` stands at 4

For reference, reported protein stability index for `C8N` stands at 5.64

For reference, reported protein stability index for `Y4G` stands at 5.77

For reference, reported protein stability index for `E17I` stands at 3.17

For reference, reported protein stability index for `K12Q` stands at 4.77

For reference, reported protein stability index for `K12V` stands at 4.14

For reference, reported protein stability index for `A24V` stands at 3.89

Numbers sourced from the supplement of paper PMC10567573.
